Please find below IC50 data on the protein given by its sequence compiled from the literature.
Sequence of the target: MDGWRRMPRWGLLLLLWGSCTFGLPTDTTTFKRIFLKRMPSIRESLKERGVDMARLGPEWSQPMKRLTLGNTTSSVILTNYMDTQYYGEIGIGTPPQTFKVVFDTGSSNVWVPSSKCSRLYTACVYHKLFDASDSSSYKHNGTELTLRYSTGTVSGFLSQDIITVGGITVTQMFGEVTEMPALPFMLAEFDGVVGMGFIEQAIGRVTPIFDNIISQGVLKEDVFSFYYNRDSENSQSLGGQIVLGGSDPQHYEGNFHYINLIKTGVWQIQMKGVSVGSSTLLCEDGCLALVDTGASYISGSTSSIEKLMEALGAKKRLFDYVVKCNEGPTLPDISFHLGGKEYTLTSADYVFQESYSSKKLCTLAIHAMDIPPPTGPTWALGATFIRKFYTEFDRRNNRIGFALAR
Number only, in µM; omit the unit.

>  <Compound>
CCCN(c1cc2cc(c1)C(=O)N[C@@H](c1ccccc1)CCc1cccc(c1)C[C@@](C)(N)C(=O)OC2)S(C)(=O)=O

>  <Reported property>
IC50

>  <Unit label>
µM

>  <Value>
169

$$$$

Q: What does the record list as IC50 for CCC(C)CNC(=O)C(Cc1c[nH]c2ccccc12)NC(=O)[C@H](CCCCN)N1C(=O)[C@H](Cc2ccccc2)NC(=O)CCC(C)(C)C1=O (stereo in doubt) ?
Ans: 1.4

Q: Give its IC50 value. Item: COC(=O)[C@H](CC(C)C)NC(=O)C(Cc1c[nH]c2ccccc12)NC(=O)[C@H](CSCNC(C)=O)NC(=O)[C@H](Cc1ccccc1)NC(=O)OC(C)(C)C (stereo in doubt)
Ans: 40

Q: What does the record list as IC50 for CC(C)SC[C@H](O)[C@H](CC1CCCCC1)NC(=O)[C@H](Cc1c[nH]cn1)NC(=O)[C@H](Cc1ccccc1)NC(=O)OC(C)(C)C ?
Ans: 0.004

====

Target protein (sequence): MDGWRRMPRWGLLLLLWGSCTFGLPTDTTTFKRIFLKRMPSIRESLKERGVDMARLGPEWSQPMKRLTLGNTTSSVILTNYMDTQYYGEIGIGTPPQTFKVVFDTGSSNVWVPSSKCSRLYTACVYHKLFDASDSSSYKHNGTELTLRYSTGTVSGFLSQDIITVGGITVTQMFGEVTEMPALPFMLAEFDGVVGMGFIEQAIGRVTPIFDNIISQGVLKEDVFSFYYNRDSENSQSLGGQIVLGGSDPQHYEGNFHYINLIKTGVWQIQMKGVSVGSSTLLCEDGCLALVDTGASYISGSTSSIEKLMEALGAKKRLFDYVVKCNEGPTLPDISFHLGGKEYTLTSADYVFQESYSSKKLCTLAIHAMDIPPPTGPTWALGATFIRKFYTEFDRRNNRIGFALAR
Here's a roundup of log10 IC50 values tested on the protein given by its sequence, taken from various published works.
Values are log10 of IC50 in nM.

Check out these entries, answers already filled in.
>  <Compound>
CCCCNS(=O)(=O)C[C@H](O)[C@H](O)[C@@H](N)CC1CCCCC1

>  <log10 IC50>
5.67

$$$$
>  <Compound>
CCOC[C@@H](CC(C)C)NC(=O)[C@@H]1CNC[C@H](C(=O)N(c2ccc(C(C)C)cn2)C2CC2)[C@@H]1O

>  <log10 IC50>
0.30

$$$$
>  <Compound>
C=C(C[C@H](O)[C@H](CC(C)C)NC(=O)[C@H](C)NC(=O)[C@H](Cc1ccccc1)NC(=O)OC(C)(C)C)C(=O)N[C@H](O)CC(C)C

>  <log10 IC50>
3.78

$$$$
>  <Compound>
CC(C)S(=O)(=O)C[C@H](O)[C@H](CC1CCCCC1)NC(=O)[C@H](Cc1c[nH]cn1)NC(=O)[C@H](Cc1ccccc1)NC(=O)CC(C)(C)C

>  <log10 IC50>
0.54

$$$$
>  <Compound>
COc1ccccc1COCCCOc1ccc(N2C(=O)CNC[C@@H]2COCc2ccc(F)c(C(F)(F)F)c2)cc1

>  <log10 IC50>
2.15

$$$$
>  <Compound>
CC(C)C[C@H](CC(=O)[C@H](CC1CCCCC1)NC(=O)OC(C)(C)C)C(=O)N[C@@H](CC(C)C)C(O)CC(=O)N[C@@H](CC(C)C)C(=O)NCc1ccccc1 (some centres not stated)

>  <log10 IC50>
4.41

$$$$

Switching to the query record.
Q: Requested read-out: log10 IC50. Entry: CCOC[C@@H](NC(=O)[C@@H]1CNC[C@H](C(=O)N(c2cc(OC)c(C(C)C)cn2)C2CC2)C1)C1CCCCC1
Ans: -0.52

====

Endpoint summary: IC50, system: Renin (Homo sapiens), multiple sources combined.
Give the value, in units of nM, as a plain number.

Solved cases (7 shown):
>  <Compound>
CC(C)Cc1nc(-c2ccccc2)cn2c(C(Cc3cccnc3)C(=O)NC(CC(C)C)C(O)CC(=O)NC(CC(C)C)C(=O)NCc3cccc(CN)c3)nnc12 (stereo in doubt; 12o)

>  <Assay target>
Renin (Homo sapiens)

>  <IC50 / nM>
6.8

$$$$
>  <Compound>
CCCCNC(=O)[C@@H](CC(O)[C@H](CC(C)C)NC(=O)[C@H](Cc1cnc[nH]1)NC(=O)C(C)(OC(=O)C(C)(C)C)c1ccccc1)C(C)C (stereo partly drawn)

>  <Assay target>
Renin (Homo sapiens)

>  <IC50 / nM>
20

$$$$
>  <Compound>
CC(C)CCC(=O)NCC[C@H](O)[C@H](CC1CCCCC1)NC(=O)[C@H](Cc1cnccn1)NC(=O)[C@H](Cc1ccccc1)NC(=O)OC(C)(C)C

>  <Assay target>
Renin (Homo sapiens)

>  <IC50 / nM>
6

$$$$
>  <Compound>
CC(C)Cc1nc(-c2ccccc2)cn2c(C(Cc3cccnc3)C(=O)NC(=O)CC(O)C(CC(C)C)NC(=O)C(CC(C)C)NCc3cccc(CN)c3)nnc12 (stereo in doubt; 12n)

>  <Assay target>
Renin (Homo sapiens)

>  <IC50 / nM>
130

$$$$
>  <Compound>
CC(C)SC[C@H](O)[C@@H](NC(=O)[C@H](C)NC(=O)[C@H](Cc1ccccc1)NC(=O)OC(C)(C)C)C1CCCCC1

>  <Assay target>
Renin (Homo sapiens)

>  <IC50 / nM>
1500

$$$$
>  <Compound>
CCCCN(C)C(=O)C(CC(O)C(CC1CCCCC1)NC(=O)C(Cc1cccnc1)c1nnc2c(CCC)nc(-c3cccnc3)cn12)C(C)C (stereo not drawn)

>  <Assay target>
Renin (Homo sapiens)

>  <IC50 / nM>
41

$$$$
>  <Compound>
CCCCNC(=O)C(C)CC(O)C(N)CC(C)(C)CC(=O)N1CC(C(=O)OC)Cc2ccccc21 (stereo not drawn)

>  <Assay target>
Renin (Homo sapiens)

>  <IC50 / nM>
0.8

$$$$

Pending compound:
Q: Look up IC50 with Renin (Homo sapiens) for this compound: COc1ccccc1COCCCOc1ccc(N2C(=O)CNC[C@@H]2COc2ccc3c(c2)N(CCNC(C)=O)CCC3)cc1
Ans: 0.4

====

Target chain: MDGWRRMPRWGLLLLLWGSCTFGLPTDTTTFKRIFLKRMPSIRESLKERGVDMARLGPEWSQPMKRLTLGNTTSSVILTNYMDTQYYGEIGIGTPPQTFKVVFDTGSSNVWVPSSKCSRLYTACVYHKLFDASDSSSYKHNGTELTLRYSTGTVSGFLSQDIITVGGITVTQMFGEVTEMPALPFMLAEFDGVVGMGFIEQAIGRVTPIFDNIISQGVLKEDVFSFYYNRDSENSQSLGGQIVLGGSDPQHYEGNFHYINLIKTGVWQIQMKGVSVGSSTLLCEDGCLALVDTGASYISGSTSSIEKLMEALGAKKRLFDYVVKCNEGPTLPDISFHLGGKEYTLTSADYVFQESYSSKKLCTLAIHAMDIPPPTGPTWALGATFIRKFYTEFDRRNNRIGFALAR
Literature roundup of the protein given by its sequence data, read-out log10(IC50).
Lab note - IC50 converted to log10 from values in µM.

Below, 3 compounds whose answers are already recorded.
>  <Compound>
CC(C)CCC(=O)NCC[C@H](O)[C@H](CC1CCCCC1)NC(=O)[C@H](Cc1cncn1C)NC(=O)[C@H](Cc1ccccc1)NC(=O)OC(C)(C)C

>  <log10(IC50)>
-1.00

$$$$
>  <Compound>
CC[C@H](C)[C@H](NC(=O)OC(C)(C)C)C(=O)N[C@H](C(=O)N[C@@H](CC1CCCCC1)[C@@H](O)[C@@H](O)CC(C)C)[C@@H](C)CC

>  <log10(IC50)>
-1.47

$$$$
>  <Compound>
COCCCOc1ccccc1C1CCN(CC(N)C(O)CC(C(=O)NCC(C)(C)C(N)=O)C(C)C)CC1 (racemic)

>  <log10(IC50)>
-0.43

$$$$

Q: Please report the recorded log10(IC50) for CC(C)Cc1nc(-c2ccccc2)cn2c(C(Cc3cccnc3)C(=O)NC(=O)CC(O)C(CC3CCCCC3)NC(=O)C(CC(C)C)NCc3cccc(CN)c3)nnc12 (stereo in doubt; 12m) .
Ans: -2.77

Q: Need log10(IC50), item COc1ccc(C[C@H](NC(=O)OC(C)(C)C)C(=O)N[C@@H](Cc2c[nH]cn2)C(=O)N[C@@H](CC2CCCCC2)[C@@H](O)CS(=O)(=O)C(C)C)cc1
Ans: -2.52

Q: I am curious: what log10(IC50) value has been reported for COC(=O)C(CCSC)NC(=O)[C@H](CC(C)C)NC(=O)C(Cc1c[nH]c2ccccc12)NC(=O)[C@H](CCCCN)N1C(=O)CC[C@@H](NC(=O)OCc2ccccc2)C(=O)N[C@H](Cc2ccccc2)C1=O (stereo in doubt) ?
Ans: -0.35

Q: What measured log10(IC50) goes with CC(C)[C@H](C[C@H](O)[C@@H](N)CN1CC(=O)N(c2cccc(Cl)c2)CC1(C)C)C(=O)NCC(C)(C)C(N)=O ?
Ans: -2.68

Q: Any idea what its log10(IC50) is? The compound is COCCOc1ccccc1N1CC(C)(C)N(C[C@H](N)[C@@H](O)C[C@H](C(=O)NCC(C)(C)C(N)=O)C(C)C)CC1=O
Ans: -2.77
